measured-parameter: pKi
Quick note: pKi means taking -log10 of the concentration in moles per liter.

Incoming: Give UniProtKB Q95PM0 pKi for CC(C)(C)n1ncc(C(=O)N[C@@H](Cc2ccc(OC(F)(F)F)c(Cl)c2)C(=O)NC2(C#N)CC2)n1
Sequence (Q95PM0 whole entry): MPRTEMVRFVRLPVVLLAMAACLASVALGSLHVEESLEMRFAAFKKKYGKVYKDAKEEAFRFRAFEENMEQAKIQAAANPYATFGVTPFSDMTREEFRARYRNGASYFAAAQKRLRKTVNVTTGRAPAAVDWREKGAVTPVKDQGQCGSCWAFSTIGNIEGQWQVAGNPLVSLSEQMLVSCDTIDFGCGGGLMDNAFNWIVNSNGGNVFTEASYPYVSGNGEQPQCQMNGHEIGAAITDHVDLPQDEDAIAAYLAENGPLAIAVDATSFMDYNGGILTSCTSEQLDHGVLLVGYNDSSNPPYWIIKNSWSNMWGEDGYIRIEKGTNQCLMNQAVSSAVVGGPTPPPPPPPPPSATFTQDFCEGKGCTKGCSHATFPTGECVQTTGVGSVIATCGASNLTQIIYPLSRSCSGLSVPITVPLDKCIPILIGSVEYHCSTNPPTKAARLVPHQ
Outgoing: 7.51

Incoming: Give UniProtKB Q95PM0 pKi for N#CC1(NC(=O)[C@H](Cc2ccc(OCC3CCC3)c(Cl)c2)NC(=O)c2cnn(-c3ccc(F)cc3)n2)CC1
Outgoing: 7.80

Incoming: Give UniProtKB Q95PM0 pKi for N#CC1(NC(=O)[C@H](Cc2ccc(Cl)c(Cl)c2)NC(=O)c2cnn(C3CCOCC3)n2)CC1
Outgoing: 8.40

Incoming: Give UniProtKB Q95PM0 pKi for N#CC1(NC(=O)[C@H](Cc2ccc(Cl)c(Cl)c2)NC(=O)c2cnn(C3CCC3)n2)CC1
Outgoing: 7.15

Incoming: Give UniProtKB Q95PM0 pKi for N#CC1(NC(=O)[C@H](Cc2ccc(OC(F)(F)F)c(Cl)c2)NC(=O)c2cnn(-c3ccc(F)nc3)n2)CC1
Outgoing: 7.85

Incoming: Give UniProtKB Q95PM0 pKi for N#CC1(NC(=O)[C@H](Cc2ccc(OC(F)(F)F)c(Cl)c2)NC(=O)c2cnn(-c3cccnc3)n2)CC1
Outgoing: 7.44

Incoming: Give UniProtKB Q95PM0 pKi for CC(C)C[C@H](NC(=O)c1cnn(-c2ccc(F)cc2)n1)C(=O)NC1(C#N)CC1
Outgoing: 7.64

Incoming: Give UniProtKB Q95PM0 pKi for N#CC1(NC(=O)[C@H](Cc2ccc(OC(F)(F)F)c(Cl)c2)NC(=O)c2cnn(-c3ccc(Cl)cc3)n2)CC1
Outgoing: 8.00

Incoming: Give UniProtKB Q95PM0 pKi for N#CC1(NC(=O)[C@H](Cc2ccc(Cl)c(Cl)c2)NC(=O)c2cnn(C3COC3)n2)CC1
Outgoing: 7.48

Incoming: Give UniProtKB Q95PM0 pKi for N#CC1(NC(=O)[C@H](Cc2ccc(Cl)c(Cl)c2)NC(=O)c2cnn(C3CC(F)(F)C3)n2)CC1
Outgoing: 7.74

Incoming: Give UniProtKB Q95PM0 pKi for CSc1ccc(-n2ncc(C(=O)N[C@@H](Cc3ccc(OC(F)(F)F)c(Cl)c3)C(=O)NC3(C#N)CC3)n2)cc1
Outgoing: 7.72

Incoming: Give UniProtKB Q95PM0 pKi for N#CC1(NC(=O)[C@H](Cc2ccc(OC(F)(F)F)c(Cl)c2)NC(=O)c2cnn(C3CCC3)n2)CC1
Outgoing: 7.96

Incoming: Give UniProtKB Q95PM0 pKi for N#CC1(NC(=O)[C@H](Cc2ccc(Cl)cc2)NC(=O)c2cnn(-c3ccc(F)cc3)n2)CC1
Outgoing: 8.52

Incoming: Give UniProtKB Q95PM0 pKi for N#CC1(NC(=O)[C@H](Cc2ccc(OC(F)(F)F)c(Cl)c2)NC(=O)c2cnn(-c3ccc(F)cc3)n2)CC1
Outgoing: 8.13

Incoming: Give UniProtKB Q95PM0 pKi for N#Cc1ccc(C[C@H](NC(=O)c2cnn(-c3ccc(F)cc3)n2)C(=O)NC2(C#N)CC2)cc1Cl
Outgoing: 8.15

Incoming: Give UniProtKB Q95PM0 pKi for N#CC1(NC(=O)[C@H](Cc2ccc(OC(F)(F)F)c(Cl)c2)NC(=O)c2cnn(C3CCCCC3)n2)CC1
Outgoing: 7.92

Incoming: Give UniProtKB Q95PM0 pKi for Cn1ncc(C(=O)N[C@@H](Cc2ccc(OC(F)(F)F)c(Cl)c2)C(=O)NC2(C#N)CC2)n1
Outgoing: 7.64

Incoming: Give UniProtKB Q95PM0 pKi for N#CC1(NC(=O)[C@H](Cc2ccc(OC(F)(F)F)c(Cl)c2)NC(=O)c2cnn(C3CCNC3)n2)CC1 (some centres undefined)
Outgoing: 7.03

Incoming: Give UniProtKB Q95PM0 pKi for N#CC1(NC(=O)[C@H](Cc2ccc(OC(F)(F)F)c(Cl)c2)NC(=O)c2cnn(-c3ccccc3)n2)CC1
Outgoing: 8.54

Incoming: Give UniProtKB Q95PM0 pKi for N#CC1(NC(=O)[C@H](Cc2ccc(OC(F)(F)F)c(Cl)c2)NC(=O)c2cnn(C3CCOCC3)n2)CC1
Outgoing: 7.74

Incoming: Give UniProtKB Q95PM0 pKi for CC(C)n1ncc(C(=O)N[C@@H](Cc2ccc(OC(F)(F)F)c(Cl)c2)C(=O)NC2(C#N)CC2)n1
Outgoing: 7.74

Incoming: Give UniProtKB Q95PM0 pKi for N#CC1(NC(=O)[C@H](Cc2ccc(OCc3ccccc3)cc2)NC(=O)c2cnn(-c3ccc(F)cc3)n2)CC1
Outgoing: 7.77

Incoming: Give UniProtKB Q95PM0 pKi for N#CC1(NC(=O)[C@H](Cc2ccc(OC(F)(F)F)c(Cl)c2)NC(=O)c2cnn(C3COC3)n2)CC1
Outgoing: 7.51

Incoming: Give UniProtKB Q95PM0 pKi for N#CC1(NC(=O)[C@H](Cc2ccc(OC(F)(F)F)c(Cl)c2)NC(=O)c2cnn(C3CC(F)(F)C3)n2)CC1
Outgoing: 7.39

Incoming: Give UniProtKB Q95PM0 pKi for N#CC1(NC(=O)[C@H](Cc2ccc(OC(F)(F)F)c(Cl)c2)NC(=O)c2cnn(-c3ccc(Br)cc3)n2)CC1
Outgoing: 7.60

Incoming: Give UniProtKB Q95PM0 pKi for N#CC1(NC(=O)[C@H](Cc2ccc(Cl)c(Cl)c2)NC(=O)c2cnn(-c3ccc(F)cc3)n2)CC1
Outgoing: 8.70

Incoming: Give UniProtKB Q95PM0 pKi for N#CC1(NC(=O)[C@H](Cc2ccc(OC(F)(F)F)c(Cl)c2)NC(=O)c2cnn(-c3ccncc3)n2)CC1
Outgoing: 7.80
